measurement notes: Pharmacokinetics after single and multiple doses, part 1
Format: in vivo, human
test settings: human, plasma, oral, 75 mg, Cmax,ss, young, 75 mg QD, multiple dose, gMean (%CV)
measure name: Cmax (nM)
Give just the numeric value; nM need not be written.

Cmax measured on "C[C@@H](Oc1ccc(S(C)(=O)=O)cc1C(=O)N1C[C@@H]2C[C@]2(c2cc(C(F)(F)F)on2)C1)C(F)(F)F" = 1020

* * *

measurement notes: Pharmacokinetics after single and multiple doses, part 1
Type: in vivo, human
test settings: human, plasma, oral, 50 mg, Cmax, elderly, 50 mg QD, single dose, gMean (%CV)
measure name: Cmax

Cmax measured on "C[C@@H](Oc1ccc(S(C)(=O)=O)cc1C(=O)N1C[C@@H]2C[C@]2(c2cc(C(F)(F)F)on2)C1)C(F)(F)F" = 371 nM
